Parameters: species or system rats
Details: rat, in vivo, sc, 230 ug/kg;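 also: blood drawn at alternating time points, with three animals in each cohort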
MRT for assorted molecules
Only the number, expressed in h, is required.

Check out these entries, answers already filled in.
[
  {
    "Molecule": "CTP-CTP-OXM: oxyntomodulin with two CTPs on the amino terminus, SEQ ID NO: 23 (protein, CTPx2-OXM) MATGSRTSLLLAFGLLCLPWLQEGSASSSSKAPPPSLPSPSRLPGPSDTPILPQSSSSKAPPPSLPSPSRLPGPSDTPILPQHSQGTFTSDYSKYLDSRRAQDFVQWLMNTKRNRNNIARSGCGRGTLGLMGLPFTARFP",
    "Value units": "h",
    "Data value": 4.10
  },
  {
    "Molecule": "CTP-OXM-CTP-CTP: oxyntomodulin with one CTP on the amino terminus and two on the carboxy terminus, SEQ ID NO: 15 (protein, CTP-OXM-CTP-CTP) MATGSRTSLLLAFGLLCLPWLQEGSASSSSKAPPPSLPSPSRLPGPSDTPILPQHSQGTFTSDYSKYLDSRRAQDFVQWLMNTKRNRNNIASSSSKAPPPSLPSPSRLPGPSDTPILPQSSSSKAPPPSLPSPSRLPGPSDTPILPQ",
    "Value units": "h",
    "Data value": 6.62
  }
]

// query Tell us which MRT value is on record for OXM-CTP-CTP: oxyntomodulin with two CTPs in tandem on the carboxy terminus, SEQ ID NO: 21, expressed in CHO cells (protein, OXM-CTP-CTP) LEDMATGSRTSLLLAFGLLCLPWLQEGSAHSQGTFTSDYSKYLDSRRAQDFVQWLMNTKRNRNNIASSSSKAPPPSLPSPSRLPGPSDTPILPQSSSSKAPPPSLPSPSRLPGPSDTPILPQ
// result 8.20

// query Tell us which MRT value is on record for CTP-OXM-CTP: oxyntomodulin with one CTP on the amino terminus and one on the carboxy terminus, SEQ ID NO: 9 (protein, CTP-OXM-CTP) MATGSRTSLLLAFGLLCLPWLQEGSASSSSKAPPPSLPSPSRLPGPSDTPILPQHSQGTFTSDYSKYLDSRRAQDFVQWLMNTKRNRNNIASSSSKAPPPSLPSPSRLPGPSDTPILPQ
// result 4.73
